Data provenance: the Immune Epitope Database (IEDB)

# measured.on: HLA-A*31:01
# assay.notes: IEDB peptide-MHC binding, purified MHC/competitive/radioactivity; filed as Kd, often an IC50 or EC50 that approximates it; bounds were set here for any values at or beyond the usual limits of such assays
# conditions: source organism: Vaccinia virus WR
endpoint.label: Kd

| sequence.string | Kd |
| --- | --- |
| ELYDTSPTK | ≥ 77.9 µM |
| IINDKGKQY | ≥ 77.9 µM |

### Prompt Lab note: need Kd for "DTSNNIAEY" on HLA-A*31:01, anyone have it?
### Response ≥ 35.6 µM

###

# measured.on: HLA-A*26:01
# assay.notes: IEDB peptide-MHC binding, purified MHC/competitive/radioactivity; filed as Kd, often an IC50 or EC50 that approximates it; bounds were set here for any values at or beyond the usual limits of such assays
# conditions: source organism: SARS coronavirus Tor2
pKd: −log10 of the molar value.
endpoint.label: pKd

Worked cases, pKd given:
| sequence.string | pKd |
| --- | --- |
| NGDVVAIDY | ≤ 4.09 |
| SSQGSEYDY | ≤ 3.99 |
| AFEKMVSLL | ≤ 4.13 |

### Prompt Requested field: pKd. Item: "NFKHLREFVF"
### Response ≤ 4.16

### Prompt Also check "GYLKPTTFM"
### Response ≤ 4.11
